Where do these numbers come from? They come from patent US10087188B2.

Tested on: HeLa cells
Experiment: [3H] Adenosine uptake assay
Type: cell-based
Conditions: Homo sapiens, HeLa, accumulation of tritiated adenosine into HeLa cells; compound concentration range 10 μM to 0.032 nM; read-out: ADU inhibition IC50 (adenosine uptake inhibition potency)
reported-metric: IC50 (µM)

[[record]]
compound = "CCOc1cc(C(=O)Nc2cc(C(F)(F)F)n(C)n2)ccc1-c1nc([C@H]2CC[C@](C(=O)O)(C(C)C)C2)n2ccnc(N)c12"
reported_metric = "IC50"
result_number = 10


[1] C[C@@]1(C(=O)O)CC[C@@](C)(c2nc(-c3ccc(C(=O)Nc4cc(C(F)(F)F)ccn4)cc3)c3c(N)nccn23)C1
[2] CCOc1cc(C(=O)Nc2cc(C(F)(F)F)ccn2)ccc1-c1nc(C23CCC(C(=O)O)(CC2=O)C(=O)C3)n2ccnc(N)c12 (stereo not drawn)
Name the one with the greater IC50 value, either 1 or 2 as given. Kindly give the label for the entry you pick.
2
(2: 10 µM, 1: 1.59 µM)

====

Test system: HeLa cells
Assay: [3H] Adenosine uptake assay
Type: cell-based
Conditions: Homo sapiens, HeLa, accumulation of tritiated adenosine into HeLa cells; compound concentration range 10 μM to 0.032 nM; read-out: ADU inhibition IC50 (adenosine uptake inhibition potency)
pIC50: −log10 of the molar value.
reported-metric: pIC50

[[record]]
molecule = "CCOc1cc(C(=O)Nc2cc(C(F)(F)F)ccn2)cc(F)c1-c1nc([C@]2(C)CC[C@@](C)(C(=O)O)CC2)n2ccnc(N)c12"
system_name = "HeLa cells"
reported_metric = "pIC50"
result_number = 5.00

[[record]]
molecule = "CCOc1cc(C(=O)Nc2cc(C(F)(F)F)ccn2)ccc1-c1nc(C2(C)CCC(C)(C(=O)O)CC2)n2ccnc(N)c12 (stereo not drawn)"
system_name = "HeLa cells"
reported_metric = "pIC50"
result_number = 5.29

[[record]]
molecule = "CCOc1cc(C(=O)Nc2cc(C(F)(F)F)ccn2)ccc1-c1nc([C@@H]2CC[C@@](C(=O)O)(C(C)C)C2)n2c(Cl)cnc(N)c12"
system_name = "HeLa cells"
reported_metric = "pIC50"
result_number = 5.17

[[record]]
molecule = "CCOc1cc(C(=O)Nc2cc(C(F)(F)F)ccn2)ccc1-c1nc([C@]2(C)CC[C@](C)(C(=O)O)C2)n2ccnc(N)c12"
system_name = "HeLa cells"
reported_metric = "pIC50"
result_number = 5.01


[P] CCOc1cc(C(=O)Nc2cc(C3CC3)ccn2)cc(F)c1-c1nc([C@@H]2CC[C@](C)(C(=O)O)C2(C)C)n2ccnc(N)c12
[Q] Cc1cnc(N)c2c(-c3ccc(C(=O)Nc4ccccn4)cc3)nc([C@H]3CN([C@H]4CC[C@](C)(C(=O)O)CC4)CCO3)n12
I need your help: which of the pair P , Q has higher pIC50? Please reply using the label of the selected record.
Q
(Q: 5.69, P: 5.14)

====

Test system: HeLa cells
Experiment: [3H] Adenosine uptake assay
Assay type: cell-based
Conditions: Homo sapiens, HeLa, accumulation of tritiated adenosine into HeLa cells; compound concentration range 10 μM to 0.032 nM; read-out: ADU inhibition IC50 (adenosine uptake inhibition potency)
pIC50: −log10 of the molar value.
reported-metric: pIC50

[[record]]
compound = "C[C@H]1CO[C@@H](c2nc(-c3ccc(C(=O)Nc4cc(C(F)(F)F)ccn4)cc3F)c3c(N)nccn23)CN1[C@H]1CC[C@@](C)(C(=O)O)CC1"
result_number = 5.39


[I] COc1cc(C(=O)Nc2cc(C(F)(F)F)ccn2)ccc1-c1nc([C@H]2CN(C3CCC(C)(C(=O)O)CC3)[C@@H](C)CO2)n2ccnc(N)c12 (stereo partly shown)
[II] Nc1nccn2c(-c3cccc(C(=O)O)c3)nc(-c3ccc(C(=O)Nc4cc(C(F)(F)F)ccn4)cc3)c12
// pick min by pIC50: I , II Answer by stating the label of the chosen item.
II

[A] C[C@]1(C(=O)O)CC[C@@](C)(c2nc(-c3ccc(C(=O)Nc4cc(C(F)(F)F)ccn4)cc3)c3c(N)nccn23)C1
[B] CCOc1cc(C(=O)Nc2cc(C(F)(F)F)ccn2)c(F)cc1-c1nc([C@@H]2CC[C@](C)(C(=O)O)C2(C)C)n2ccnc(N)c12
pIC50 comparison. Which is larger, A or B ? Response format: the label of the selected entry.
B
